For each of the binders below, state its Percent of Binding to Mutant Human CD20.
TESTED ON: T1, mutant human CD20 #5 (P172S) (human, UniProt P11836 1-297)
T1 construct: Stably expressed on MG87 cells
T1 sequence: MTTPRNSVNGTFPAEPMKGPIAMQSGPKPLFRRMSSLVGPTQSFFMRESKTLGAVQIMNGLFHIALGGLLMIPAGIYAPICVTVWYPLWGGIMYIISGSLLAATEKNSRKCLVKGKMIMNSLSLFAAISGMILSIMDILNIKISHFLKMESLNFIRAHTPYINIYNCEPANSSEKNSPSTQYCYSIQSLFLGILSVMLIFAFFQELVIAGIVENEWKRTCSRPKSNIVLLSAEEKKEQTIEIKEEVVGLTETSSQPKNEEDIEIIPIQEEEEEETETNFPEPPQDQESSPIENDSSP
ASSAY PROCEDURE: FACS, mutant-hCD20 MG87 cells; 100%=best antibody
Answers are plain numbers, in %.

[[record]]
binder = "10F2-13 (antibody, V domains shown, Fully human IgG, constant region not specified; also called 10F2-13N; ab 10F2-13) VH: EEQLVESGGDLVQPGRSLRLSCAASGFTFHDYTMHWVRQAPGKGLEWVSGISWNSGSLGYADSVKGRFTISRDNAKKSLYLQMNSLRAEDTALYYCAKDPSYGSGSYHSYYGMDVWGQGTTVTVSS VL: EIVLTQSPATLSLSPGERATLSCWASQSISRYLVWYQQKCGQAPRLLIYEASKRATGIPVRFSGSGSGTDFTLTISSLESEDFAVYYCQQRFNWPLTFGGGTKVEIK"
test_value = 69

[[record]]
binder = "9H4-12 (antibody, V domains shown, Fully human IgG, constant region not specified; also called 9H4-12N) VH: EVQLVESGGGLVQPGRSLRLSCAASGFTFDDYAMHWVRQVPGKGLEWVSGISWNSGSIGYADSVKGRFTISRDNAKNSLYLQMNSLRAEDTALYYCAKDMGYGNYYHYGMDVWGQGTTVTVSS VL: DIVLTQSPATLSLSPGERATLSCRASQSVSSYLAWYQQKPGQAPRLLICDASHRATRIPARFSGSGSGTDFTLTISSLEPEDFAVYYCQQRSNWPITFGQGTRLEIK"
test_value = 2


Sure, the documented Percent of Binding to Mutant Human CD20 for 2C11-4 (antibody, V domains shown, Fully human IgG, constant region not specified; also called 2C11-4N) VH: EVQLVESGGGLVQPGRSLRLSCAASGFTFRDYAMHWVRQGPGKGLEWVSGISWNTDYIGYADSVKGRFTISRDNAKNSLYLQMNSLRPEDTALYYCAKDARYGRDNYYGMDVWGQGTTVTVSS VL: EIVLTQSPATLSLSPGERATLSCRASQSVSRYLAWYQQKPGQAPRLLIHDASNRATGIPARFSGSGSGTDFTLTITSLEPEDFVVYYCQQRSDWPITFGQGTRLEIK is 30
